src = patent US7446079B2

# Assay text: GC-MS headspace release profile of Tropical Fruit perfume in shampoo, 1/100 dilution in water
# Assay type: physicochemical
# Study conditions: headspace at 50 seconds
Entries and their GC Abundance values follow.

[
  {
    "Molecule": "C=CC(C)CCCC(C)(C)O (stereo not drawn) [DIHYDROMYRCENOL]",
    "GC Abundance": 15000
  },
  {
    "Molecule": "CC1(C)CCC[C@]2(C)[C@H]3CCO[C@]3(C)CC[C@@H]12 [AMBROXAN]",
    "GC Abundance": 1000
  },
  {
    "Molecule": "O=C1CCCCCCCCCCCCCCO1 [EXALTOLIDE TOTAL]",
    "GC Abundance": 50
  },
  {
    "Molecule": "CC/C=C\\CCOC(C)=O [CIS-3-HEXENYL ACETATE]",
    "GC Abundance": 14000
  },
  {
    "Molecule": "CC/C=C\\CCOC(=O)OC [LIFFAROME]",
    "GC Abundance": 3000
  },
  {
    "Molecule": "CCOC(=O)C(C)CC (stereo not drawn) [Ethyl 2-methylbutyrate]",
    "GC Abundance": 1500
  }
]

###

# Assay text: GC-MS headspace release profile of Tropical Fruit perfume in shampoo, 1/100 dilution in water
# Assay type: physicochemical
# Study conditions: headspace at 30 seconds
Values of GC Abundance greater than or equal to 10000 map to True; values below map to False.

[
  {
    "Molecule": "CCCC(C)C(=O)OCC (stereo not shown) [MANZANATE, Ethyl 2-methylpentanoate]",
    "Category label": "False"
  },
  {
    "Molecule": "CCCCCC1CCC(=O)O1 (stereo not shown) [ALDEHYDE C-18]",
    "Category label": "False"
  },
  {
    "Molecule": "C=C(C)[C@H]1CC=C(C)CC1 [d-LIMONENE, d-1-Methyl-4-isopropenyl-1-cyclohexene]",
    "Category label": "False"
  },
  {
    "Molecule": "C=CC(C)(O)CCC=C(C)C (stereo not shown) [LINALOOL]",
    "Category label": "True"
  },
  {
    "Molecule": "CC(C)=CC1CC(C)CCO1 (stereo not drawn) [ROSE OXIDE (HIGH CIS)]",
    "Category label": "True"
  },
  {
    "Molecule": "CC(C)=CCCC(C)CCO (stereo not shown) [CITRONELLOL AJ, FCC, CITRONELLOL]",
    "Category label": "False"
  },
  {
    "Molecule": "CCOC(=O)CC1(C)OCCO1 [FRUCTONE]",
    "Category label": "False"
  },
  {
    "Molecule": "CC/C=C\\CCO [CIS-3-HEXEN-1-OL]",
    "Category label": "True"
  },
  {
    "Molecule": "CC/C=C\\CCOC(=O)OC [LIFFAROME]",
    "Category label": "False"
  },
  {
    "Molecule": "CC(=O)OC1CCCCC1C(C)(C)C (stereo not shown) [VERDOX]",
    "Category label": "True"
  },
  {
    "Molecule": "CC1=CC(C)C(C=O)CC1 (stereo not shown) [TRIPLAL]",
    "Category label": "True"
  },
  {
    "Molecule": "CCOC(=O)C(C)CC (stereo not shown) [Ethyl 2-methylbutyrate]",
    "Category label": "False"
  },
  {
    "Molecule": "C=CC(C)CCCC(C)(C)O (stereo not shown) [DIHYDROMYRCENOL]",
    "Category label": "True"
  },
  {
    "Molecule": "CC(=O)C=CC1=C(C)CCCC1(C)C [IONONE BETA PURE]",
    "Category label": "False"
  },
  {
    "Molecule": "CCC(=O)OCc1ccccc1 [BENZYL PROPIONATE]",
    "Category label": "False"
  },
  {
    "Molecule": "CC(=O)OCc1ccccc1 [BENZYL ACETATE]",
    "Category label": "True"
  },
  {
    "Molecule": "CCC(C)(O)CCC=C(C)C (stereo not shown) [DIHYDROLINALOOL]",
    "Category label": "False"
  },
  {
    "Molecule": "CC/C=C\\CCOC(C)=O [CIS-3-HEXENYL ACETATE]",
    "Category label": "True"
  }
]
